From: ChEMBL document CHEMBL1132203

Tested on: Human immunodeficiency virus 1
Experiment: Effective antiviral concentration against HIV-1 infected CEM-SS cells
Format: functional, organism-based
Conditions: Human immunodeficiency virus 1, CEM-SS
pEC50 values, listed per item
In plain terms, pEC50 is the concentration in mol/L turned into minus its base-10 logarithm.

Solved entries:
Cc1noc(NS(=O)(=O)c2ccc(-n3sc4ccccc4c3=O)cc2)c1C ... 4.89
COc1cnc(NS(=O)(=O)c2ccc(NC(=O)c3ccccc3SSc3ccccc3C(=O)Nc3ccc(S(=O)(=O)Nc4ncc(OC)cn4)cc3)cc2)nc1 ... 5.68
Cc1nnc(NS(=O)(=O)c2ccc(NC(=O)c3ccccc3SSc3ccccc3C(=O)Nc3ccc(S(=O)(=O)Nc4nnc(C)s4)cc3)cc2)s1 ... 5.47
O=C(Nc1ccc(S(=O)(=O)Nc2ncccn2)cc1)c1ccccc1SSc1ccccc1C(=O)Nc1ccc(S(=O)(=O)Nc2ncccn2)cc1 ... 5.70
CC(=O)NS(=O)(=O)c1ccc(NC(=O)c2ccccc2SC(=O)CCC[n+]2ccccc2)cc1.[Br-] ... 5.00

Field: next molecule
Q) Report pEC50 for `O=C(Nc1ccc(S(=O)(=O)c2ccc(NC(=O)c3ccccc3SSc3ccccc3C(=O)Nc3ccc(S(=O)(=O)c4ccc(NC(=O)c5cc([N+](=O)[O-])cc([N+](=O)[O-])c5)cc4)cc3)cc2)cc1)c1cc([N+](=O)[O-])cc([N+](=O)[O-])c1`
A) 3.62
